Below: a set of entries, each annotated with reported Cmax Mean.
Assay: Pharmacokinetics of released PEGylated protease inhibitor following P.O. administration of prodrugs in rats
Assay type: in vivo, male Sprague-Dawley rats
Conditions: mPEG3-atazanavir in plasma after PO administration of mPEG3-ATV or of the listed prodrug, rats (n = 4-5)
Please reply with the bare figure in µg/mL and do not write the unit itself.

>  <molecule>
CCOCO[C@@H](CN(Cc1ccc(-c2ccccn2)cc1)NC(=O)[C@@H](NC(=O)OC)C(C)(C)C)[C@H](Cc1ccccc1)NC(=O)[C@@H](NC(=O)OCCOCCOCCOC)C(C)(C)C

>  <unit-name>
µg/mL

>  <Cmax Mean>
0.19

$$$$

Query :: Please list Cmax Mean recorded for the molecule COCCOCCOCCOC(=O)NC(C(=O)NC(Cc1ccccc1)C(CN(Cc1ccc(-c2ccccn2)cc1)NC(=O)C(NC(=O)OC)C(C)(C)C)OC(=O)CNC(=O)C(N)CC(C)C)C(C)(C)C.Cl (stereo not drawn) [Leu-Gly-mPEG3-Atazanavir, Leu-Gly-mPEG3-Atazanavir Hydrochloride]
Result :: 0.0021

Values compiled from patent US20120108501A1.
